- target: T1, HLA-A*02:01 (peptide-receptive MHC class I monomer after UV cleavage of the UV-sensitive ligand) (human)
- T1 construct: MHC monomers loaded by UV-ligand exchange and captured on streptavidin plates
- experiment_summary: UV ligand-exchange ELISA; exchange yield grade (+ >=10%, ++ >=20%, +++ >=50%, ++++ >=75%)
assay_endpoint: peptide exchange yield

binder: FLGSFIDHV [FLGSFIDHV (SEQ ID NO: 26)]
result: 50 to 75%

binder: FILEPLYKI [FILEPLYKI (SEQ ID NO: 296)]
result: ≥ 75%

binder: KLMDLEDCAL [KLMDLEDCAL (SEQ ID NO: 275)]
result: ≥ 75%

binder: FVWEASHYL [FVWEASHYL (SEQ ID NO: 303)]
result: ≥ 75%

binder: IVMGAIPSV [IVMGAIPSV (SEQ ID NO: 231)]
result: 50 to 75%

Read off the recorded peptide exchange yield for AILLPQPPK [AILLPQPPK (SEQ ID NO: 273)] 20 to 50%

Read off the recorded peptide exchange yield for ALGRLGILSV [ALGRLGILSV (SEQ ID NO: 134)] 50 to 75%

Read off the recorded peptide exchange yield for SAVSGQWEV [SAVSGQWEV (SEQ ID NO: 206)] 20 to 50%

Ref: patent US20170296640A1
